- subject_of_test: GSPT1 (Homo sapiens, UniProt P15170+Q96SW2)
- Sequence (P15170 whole entry, one chain of several): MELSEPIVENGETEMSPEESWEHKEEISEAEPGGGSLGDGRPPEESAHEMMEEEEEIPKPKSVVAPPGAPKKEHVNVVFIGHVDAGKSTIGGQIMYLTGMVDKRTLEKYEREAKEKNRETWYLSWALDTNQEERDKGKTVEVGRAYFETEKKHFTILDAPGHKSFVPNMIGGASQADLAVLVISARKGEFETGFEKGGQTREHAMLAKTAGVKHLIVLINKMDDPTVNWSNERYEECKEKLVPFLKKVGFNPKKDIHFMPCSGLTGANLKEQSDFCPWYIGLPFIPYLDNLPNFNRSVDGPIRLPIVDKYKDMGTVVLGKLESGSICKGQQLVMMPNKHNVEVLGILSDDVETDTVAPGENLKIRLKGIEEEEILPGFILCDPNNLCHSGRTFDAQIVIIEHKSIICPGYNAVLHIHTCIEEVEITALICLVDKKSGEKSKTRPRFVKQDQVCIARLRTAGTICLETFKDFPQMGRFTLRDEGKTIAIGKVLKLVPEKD
- Sequence (Q16531 2-1140 partner limits assumed, one chain of several): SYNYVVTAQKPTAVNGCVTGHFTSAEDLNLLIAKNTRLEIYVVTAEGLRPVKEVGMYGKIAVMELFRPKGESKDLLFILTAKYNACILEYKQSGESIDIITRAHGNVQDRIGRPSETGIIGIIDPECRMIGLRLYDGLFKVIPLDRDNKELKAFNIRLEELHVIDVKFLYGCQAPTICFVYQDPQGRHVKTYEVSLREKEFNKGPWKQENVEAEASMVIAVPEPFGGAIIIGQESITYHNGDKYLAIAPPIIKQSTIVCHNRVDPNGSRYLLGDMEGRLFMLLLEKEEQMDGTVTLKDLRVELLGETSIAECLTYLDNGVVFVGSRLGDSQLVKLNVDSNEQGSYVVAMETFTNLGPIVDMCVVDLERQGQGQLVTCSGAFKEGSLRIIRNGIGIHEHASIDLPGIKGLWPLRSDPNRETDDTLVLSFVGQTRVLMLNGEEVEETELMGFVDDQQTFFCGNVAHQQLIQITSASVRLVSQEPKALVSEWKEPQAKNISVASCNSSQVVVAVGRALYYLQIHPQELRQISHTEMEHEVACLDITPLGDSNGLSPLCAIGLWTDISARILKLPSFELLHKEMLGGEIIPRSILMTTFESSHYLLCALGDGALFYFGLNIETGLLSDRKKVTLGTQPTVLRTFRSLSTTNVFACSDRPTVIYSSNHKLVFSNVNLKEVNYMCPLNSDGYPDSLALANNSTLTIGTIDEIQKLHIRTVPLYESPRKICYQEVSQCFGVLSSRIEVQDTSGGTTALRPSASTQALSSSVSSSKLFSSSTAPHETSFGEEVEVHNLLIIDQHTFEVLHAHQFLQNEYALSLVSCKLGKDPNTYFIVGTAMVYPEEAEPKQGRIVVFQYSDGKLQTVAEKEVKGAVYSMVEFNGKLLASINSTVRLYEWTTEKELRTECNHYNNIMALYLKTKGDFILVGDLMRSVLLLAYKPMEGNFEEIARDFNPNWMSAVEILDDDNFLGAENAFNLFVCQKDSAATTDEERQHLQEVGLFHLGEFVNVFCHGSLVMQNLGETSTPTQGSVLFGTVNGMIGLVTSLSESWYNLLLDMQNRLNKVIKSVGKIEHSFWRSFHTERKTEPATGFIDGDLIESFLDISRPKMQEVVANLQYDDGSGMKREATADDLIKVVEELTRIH
- assay_explanation: Immunofluorescence assay for GSPT1 degradation in CAL-51 cells
- Assay type: cell-based
- Parameters: CAL-51 cells were purchased from DSMZ (cat. Number ACC302); endogenous in cells; host or cells: CAL-51 (DSMZ ACC302)
- applied_conditions: compound treatment 6 hours, read-out: Code: activity for GSPT1 degradation (DC50)
measured_endpoint: DC50

O=C1CCC(N2Cc3ccc(CNC(=O)NCC4CCCCC4)cc3C2=O)C(=O)N1 (stereo not shown) [Compound 58]
> 300 nM
Cc1c(Cl)cc(NC(=O)NCc2ccc3c(c2)C(=O)N(C2CCC(=O)NC2=O)C3)cc1CC1COCOC1 (stereo not shown) [Compound 132]
≤ 100 nM
Cc1cc(Cl)c(NC(=O)NCc2ccc3c(c2)C(=O)N(C2CCC(=O)NC2=O)C3)cc1Cl (stereo not shown) [Compound 78]
≤ 100 nM
Cc1c(Cl)cc(NC(=O)NCc2ccc3c(c2)C(=O)N(C2CCC(=O)NC2=O)C3)cc1OCCN(C)C (stereo not shown) [Compound 134]
> 300 nM
Cc1c(Cl)cc(NC(=O)NCc2ccc3c(c2)C(=O)N(C2CCC(=O)NC2=O)C3)cc1C[C@H]1CO[C@H](C)OC1 (stereo partly shown) [Compound 141]
≤ 100 nM

Request: Entry under review: Cc1cc(C)c(NC(=O)NCc2ccc3c(c2)C(=O)N(C2CCC(=O)NC2=O)C3)cc1Cl (stereo not shown) [Compound 85] . Reported DC50?
Response: 100 to 300 nM

Request: I have this compound here, COc1cccc(NC(=O)NCc2ccc3c(c2)C(=O)N(C2CCC(=O)NC2=O)C3)c1 (stereo not shown) [Compound 6] , and I need its recorded DC50.
Response: > 300 nM

Request: So what does the record say about DC50 for C[C@H](NC(=O)NCc1ccc2c(c1)C(=O)N(C1CCC(=O)NC1=O)C2)c1ccccc1 (stereo partly shown) [Compound 55] ?
Response: > 300 nM

Request: Query (compound): O=C1CCC(N2Cc3ccc(CNC(=O)Nc4cc(Cl)ccc4Cl)cc3C2=O)C(=O)N1 (stereo not shown) [Compound 35] ; field requested: DC50
Response: > 300 nM

Request: What does the data say about its DC50? Entry: O=C1CCC(N2Cc3ccc(CNC(=O)Nc4cccc(Cl)c4Cl)cc3C2=O)C(=O)N1 (stereo not shown) [Compound 50]
Response: > 300 nM

Request: Return reported DC50; argument: COc1cc(C)c(Cl)cc1NC(=O)NCc1ccc2c(c1)C(=O)N(C1CCC(=O)NC1=O)C2 (stereo not shown) [Compound 76]
Response: ≤ 100 nM

----------
pIC50: −log10 of the molar value.
A set of compounds tested on Full length wild-type cereblon CRBN (Homo sapiens), with measured pIC50:
measured_endpoint: pIC50

O=C1CCC(N2Cc3ccc(CNC(=O)Nc4ccc(Cl)cc4Cl)cc3C2=O)C(=O)N1 (centres unmarked)
6.33

[A] O=C1CCC(N2Cc3ccc(CNC(=O)Nc4cccnc4)cc3C2=O)C(=O)N1 (centres unmarked)
[B] CC(C)NC(=O)NCc1ccc2c(c1)C(=O)N(C1CCC(=O)NC1=O)C2 (centres unmarked)
[C] O=C1CCC(N2Cc3ccc(CNC(=O)Nc4ccncc4)cc3C2=O)C(=O)N1 (centres unmarked)
Request: Task for the reader: rank each entry by its pIC50, from the minimum upward. When ranking, write the labels in the order the request describes.
Response: B, A, C
(B: 6.02, A: 6.36, C: 6.63)

----------
- subject_of_test: Full length wild-type cereblon CRBN (Homo sapiens)
- Sequence (Q96SW2 whole entry): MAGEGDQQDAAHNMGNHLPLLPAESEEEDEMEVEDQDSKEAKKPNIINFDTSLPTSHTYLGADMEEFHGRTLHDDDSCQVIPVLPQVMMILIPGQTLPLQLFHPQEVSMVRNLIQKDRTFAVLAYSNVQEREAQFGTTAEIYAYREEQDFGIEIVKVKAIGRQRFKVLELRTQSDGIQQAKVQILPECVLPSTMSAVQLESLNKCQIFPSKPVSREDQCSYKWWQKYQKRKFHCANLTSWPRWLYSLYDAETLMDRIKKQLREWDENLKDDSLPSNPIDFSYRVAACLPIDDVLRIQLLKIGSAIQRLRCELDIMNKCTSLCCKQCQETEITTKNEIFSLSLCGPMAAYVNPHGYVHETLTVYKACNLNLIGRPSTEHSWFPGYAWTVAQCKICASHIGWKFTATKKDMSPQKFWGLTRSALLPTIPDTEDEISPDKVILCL
measured_endpoint: IC50 (nM)

Worked cases, answers included:
CC(C)(O)c1ccc(NC(=O)NCc2ccc3c(c2)C(=O)N(C2CCC(=O)NC2=O)C3)cc1 (stereo not shown)
334
COc1cc(C)c(Cl)cc1NC(=O)NCc1ccc2c(c1)C(=O)N(C1CCC(=O)NC1=O)C2 (stereo not shown)
281
O=C1CCC(N2Cc3ccc(CNC(=O)NCCc4ccccc4)cc3C2=O)C(=O)N1 (stereo not shown)
444
CCOc1ccccc1NC(=O)NCc1ccc2c(c1)C(=O)N(C1CCC(=O)NC1=O)C2 (stereo not shown)
393
N#Cc1ccc(NC(=O)NCc2ccc3c(c2)C(=O)N(C2CCC(=O)NC2=O)C3)cc1 (stereo not shown)
196
Cn1ccc(NC(=O)NCc2ccc3c(c2)C(=O)N(C2CCC(=O)NC2=O)C3)n1 (stereo not shown)
351
COc1ccc(NC(=O)NCc2ccc3c(c2)C(=O)N(C2CCC(=O)NC2=O)C3)cc1 (stereo not shown)
339
Cn1ccc(NC(=O)NCc2ccc3c(c2)C(=O)N(C2CCC(=O)NC2=O)C3)c1 (stereo not shown)
302

[A] Cn1nccc1-c1cccc(NC(=O)NCc2ccc3c(c2)C(=O)N(C2CCC(=O)NC2=O)C3)c1 (stereo not shown)
[B] O=C1CCC(N2Cc3ccc(CNC(=O)Nc4ccc(Cl)c(Cl)c4)cc3C2=O)C(=O)N1 (stereo not shown)
Request: Among A and B , which shows a numerically higher IC50 result? Choose, then provide that item's label.
Response: B
(B: 1400 nM, A: 230 nM)

[P] Cc1cc(NC(=O)NCc2ccc3c(c2)C(=O)N(C2CCC(=O)NC2=O)C3)no1 (stereo not shown)
[Q] O=C1CCC(N2Cc3ccc(CNC(=O)NCc4ccccc4)cc3C2=O)C(=O)N1 (stereo not shown)
Request: Rank P against Q by their IC50 values and give the higher one. // output: label of the selected item
Response: Q
(Q: 1590 nM, P: 301 nM)

----------
// each record: one item and its pIC50 for Full length wild-type cereblon CRBN (Homo sapiens)
pIC50: −log10 of the molar value.
measured_endpoint: pIC50

Below: 2 compounds and their reported pIC50.
Cc1cc(C)c(NC(=O)NCc2ccc3c(c2)C(=O)N(C2CCC(=O)NC2=O)C3)c(C)c1Cl (stereo not shown)
6.61
Cc1cc(Cl)ccc1NC(=O)NCc1ccc2c(c1)C(=O)N(C1CCC(=O)NC1=O)C2 (stereo not shown)
6.29

[P] Cc1c(Cl)cc(NC(=O)NCc2ccc3c(c2)C(=O)N(C2CCC(=O)NC2=O)C3)cc1C=O (stereo not shown)
[Q] Cc1nc(NC(=O)NCc2ccc3c(c2)C(=O)N(C2CCC(=O)NC2=O)C3)sc1C (stereo not shown)
[R] Cc1cc(NC(=O)NCc2ccc3c(c2)C(=O)N(C2CCC(=O)NC2=O)C3)cc(C)n1 (stereo not shown)
Request: Order the items by recorded pIC50; the first position goes to the largest value. Please list each label once, in the requested order.
Response: Q, P, R
(Q: 6.52, P: 6.22, R: 5.84)

----------
Recorded measurements of DC50, one per entry
- subject_of_test: GSPT1 (Homo sapiens, UniProt P15170+Q96SW2)
- assay_explanation: Immunofluorescence assay for GSPT1 degradation in CAL-51 cells
- Format: cell-based
- Parameters: CAL-51 cells were purchased from DSMZ (cat. Number ACC302); endogenous in cells; host or cells: CAL-51 (DSMZ ACC302)
- applied_conditions: compound treatment 6 hours, read-out: Code: activity for GSPT1 degradation (DC50)

Here is how some compounds turned out for DC50.
O=C1CCC(N2Cc3ccc(CNC(=O)Nc4cc(Cl)cc(CN5CCOCC5)c4)cc3C2=O)C(=O)N1 (centres unmarked)
≤ 100 nM
COc1ccc(NC(=O)NCc2ccc3c(c2)C(=O)N(C2CCC(=O)NC2=O)C3)c(C)c1 (centres unmarked)
> 300 nM
Cc1c(Cl)cccc1NC(=O)NCc1ccc2c(c1)C(=O)N(C1CCC(=O)NC1=O)C2 (centres unmarked)
> 300 nM

Request: Name the recorded DC50 for Cc1c(Cl)cc(NC(=O)NCc2ccc3c(c2)C(=O)N(C2CCC(=O)NC2=O)C3)cc1OCCN1CCOCC1 (centres unmarked) .
Response: ≤ 100 nM

Request: What does the data say about its DC50? Entry: Cn1ccc(NC(=O)NCc2ccc3c(c2)C(=O)N(C2CCC(=O)NC2=O)C3)n1 (centres unmarked)
Response: > 300 nM

Request: Value lookup for DC50; key = O=C1CCC(N2Cc3ccc(CNC(=O)Nc4ccc(Cl)cc4Cl)cc3C2=O)C(=O)N1 (centres unmarked)
Response: > 300 nM

Request: Which value of DC50 has been reported for Cc1c(Cl)cc(NC(=O)NCc2ccc3c(c2)C(=O)N(C2CCC(=O)NC2=O)C3)cc1OC(F)(F)F (centres unmarked) in the records?
Response: 100 to 300 nM

Request: Query (compound): COc1ccc(C)cc1NC(=O)NCc1ccc2c(c1)C(=O)N(C1CCC(=O)NC1=O)C2 (centres unmarked) ; field requested: DC50
Response: > 300 nM

----------
- subject_of_test: GSPT1 (Homo sapiens, UniProt P15170+Q96SW2)
- assay_explanation: Immunofluorescence assay for GSPT1 degradation in CAL-51 cells
- Format: cell-based
- Design: CAL-51 cells were purchased from DSMZ (cat. Number ACC302); endogenous in cells; host or cells: CAL-51 (DSMZ ACC302)
- applied_conditions: compound treatment 6 hours, read-out: Code: activity for GSPT1 degradation (DC50)
measured_endpoint: DC50

Solved cases (3 shown):
O=C1CCC(N2Cc3ccc(CNC(=O)Nc4ccsc4)cc3C2=O)C(=O)N1 (stereo not shown)
> 300 nM
O=C1CCC(N2Cc3ccc(CNC(=O)Nc4ccc(C(F)(F)F)cc4)cc3C2=O)C(=O)N1 (stereo not shown)
100 to 300 nM
O=C1CCC(N2Cc3ccc(CNC(=O)Nc4ccc(C(F)F)cc4)cc3C2=O)C(=O)N1 (stereo not shown)
> 300 nM

Moving on to the next compound.
Request: # query: DC50 of entry Cc1ccc(NC(=O)NCc2ccc3c(c2)C(=O)N(C2CCC(=O)NC2=O)C3)cc1OC(F)(F)F (stereo not shown)
Response: ≤ 100 nM
